B1: FBF1 (parent)
chain: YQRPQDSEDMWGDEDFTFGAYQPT

variants of: B1; experiment: protein stability index of a GFP-peptide fusion (GPS, HEK-293T) (PSI 1-6); higher = more stable; details: c terminus: a fixed tail appended;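 note: lentivirally expressed fusions sorted by FACS into six bins by GFP to DsRed ratio, PSI derived from sequencing read proportions per bin multiplied by bin number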
Assay Readout: protein stability index

In [3]: df
Out[3]:
    var  result
0  A20T    3.05
1  T17G    3.01
2   D9S    2.11
3  F16K    2.87

For this variant ( D15M ), measured protein stability index is 1.9

Lookup result for F16N ; measured protein stability index: 3.61

Short answer for Q22P : protein stability index was 3.19

Form: variant = Q22S ; protein stability index = 3.03

So for W11M , the logged protein stability index turned out to be 4.13

For this variant ( Q2V ), measured protein stability index is 1.78

The variant R3Q showed protein stability index equal to 4.01

P4N has a reported protein stability index of 2.26

The value of protein stability index measured for the variant T17S turned out to be 2.65

Entry Q2H ; protein stability index = 2.21

The variant listed as R3C has a reported protein stability index of 3.12

Value of measured protein stability index for the entry P23C : 2.96

The variant listed as W11H shows protein stability index equal to 4.54
